Assay: Single oral dose pharmacokinetics (plasma and urine) of SYM-1219 microgranule formulation in fasted healthy female subjects
Conditions: female, human, plasma, po, 1 gram, AUC0-∞, Median; 1 gram single oral dose; fasted; N = 14
MEASURED_ENDPOINT: AUC(0-inf) (µg·h/mL)
Use µg·h/mL as the unit, but write only the number.

Problem: Bench note: what AUC(0-inf) did Cc1ncc([N+](=O)[O-])n1CC(C)O (stereo not shown) show?
Solution: 595

###

Assay: Effect of a single 2 g dose of SYM-1219 on the plasma pharmacokinetics of EE2 and NET in healthy female subjects
Assay type: in vivo, human
Conditions: female, human, plasma, Group B1 Period 2: EE2/NET followed by SYM-1219 2 grams on Day 1; read-out: EE2 Cmax, Geometric Least Squares (LS) Means
MEASURED_ENDPOINT: Cmax
// unit must come after the numeric part

Problem: Item under review: C#C[C@]1(O)CC[C@H]2[C@@H]3CCc4cc(O)ccc4[C@H]3CC[C@@]21C [EE2, ethinyl estradiol] . Reported Cmax?
Solution: 0.0554 ng/mL
